Measured Inhibition rate, listed per entry.
- System: transcription factor AP-1 (nuclear extract protein prepared from HeLa cells)
- MEASUREMENT_DESCRIPTION: Activities on AP-1 binding reaction to recognition sequence (ELISA) using nuclear extract protein
- CONDITION_SUMMARY: 100 μM; ELISA using nucleus-extracted protein
Bridge positions count the residues as written; N and C are the ends. Peptide text beside a SMILES is read from it.
MEASURED_QUANTITY: Inhibition rate (%)

compound="CC(=O)NC1CSSCC(C(N)=O)NC(=O)CNC(=O)CNC(=O)C(C)NC(=O)C(CC(C)C)NC(=O)C(CC(=O)O)NC(=O)C(CC(C)C)NC(=O)C(CCC(N)=O)NC(=O)CNC1=O (centres unmarked) [3(3)] (Ac-CGQLDLAGGC-NH2; disulfide 1-10; configuration not given here)" result_number=43
compound="CC(=O)NC1CSSCC(C(N)=O)NC(=O)CNC(=O)C(CC(N)=O)NC(=O)C(C)NC(=O)C(CC(C)C)NC(=O)C(CC(=O)O)NC(=O)C(CC(C)C)NC(=O)C(CCC(N)=O)NC(=O)CNC1=O (centres unmarked) [3 (4)] (Ac-CGQLDLANGC-NH2; disulfide 1-10; configuration not given here)" result_number=64
